The reported measurements were obtained from ChEMBL document CHEMBL3885881.

Species on record: Rattus norvegicus
Test: DrugMatrix - Regimen: Daily Repeat
Type: toxicity, organism-based, Sprague-Dawley
Set-up: regimen Daily Repeat, gender Male, age 6-8 weeks
Details: in vivo, po, 10 mg/kg, […], tissue Blood, route oral GAVAGE, dose level Low, time 14 day, vehicle .5 % CMC

mol-smiles: CN(C)CCN(Cc1cccs1)c1ccccn1
ABSOLUTE LYMPHOCYTE: 10000 cells/µL

---

Species on record: Rattus norvegicus
Assay: DrugMatrix - Regimen: Daily Repeat
Assay type: toxicity, organism-based, Sprague-Dawley
Set-up: regimen Daily Repeat, gender Male, age 6-8 weeks
Settings: in vivo, po, 100 mg/kg, […], tissue Blood, route oral GAVAGE, dose level High, time 14 day, vehicle .5 % CMC

mol-smiles: CN(C)CCN(Cc1cccs1)c1ccccn1
measurement-units: cells/µL
ABSOLUTE BASOPHIL: 150
